result_type: melting point

Observe how each entry below is paired with its result.
compound | result
NC(=O)c1cccc(CN2C(=O)C3(COc4cc5c(cc43)OCCO5)c3ccccc32)c1 (stereo not shown) [Example 12.61] | 130 to 135 °C
CC(O)CCN1C(=O)C2(COc3cc4c(cc32)CCO4)c2ccccc21 (stereo not shown) [Example 14.4] | 64 to 66 °C
CCCCCN1C(=O)C2(COc3cc4c(cc32)OCCO4)c2ccccc21 (stereo not shown) [Example 8.4] | 129 to 130 °C
O=C1N(Cc2ccc(N3CCOCC3)cn2)c2ccccc2C12COc1cc3c(cc12)OCCO3 (stereo not shown) [Example 33.3] | 204 to 206 °C
CN1C(=O)COc2cc3c(cc21)C1(CO3)C(=O)N(C[C@H]2CCCO2)c2ccccc21 (stereo partly shown) [Example 4.59] | 79 to 81 °C
O=C1Nc2cccc(-c3ccoc3)c2[C@]12COc1cc3c(cc12)OCO3 [Example 16.65] | 230 to 231 °C

As a next step, examine the compound that follows.
Give the measured melting point of O=C1N(Cc2ccc(C(F)(F)F)o2)c2ccccc2C12COc1cc3c(cc12)OCCCO3 (stereo not shown) [Example 4.54] .
162 to 164 °C

----------
test_target: CYP3A4 (Homo sapiens)
protocol_notes: Cytochrome P450 (CYP450) Inhibition Assay, CYP3A4 (Vivid fluorescence, BOMCC substrate)
condition_details: human, P450 Baculosomes (recombinant CYP3A4), probe BOMCC (Vivid substrate)
For each record, write down the corresponding inhibition at 10 µM.

Observe how each entry below is paired with its result.
compound | inhibition at 10 µM
O=C1N(C[C@H]2CCCO2)c2cccc(-c3cccc4c3sc3ccccc34)c2C12COc1cc3c(cc12)CCO3 (some centres unmarked) | > 50%
CN1C(=O)C2(COc3cc4c(cc32)OCCO4)c2ccccc21 (centres unmarked) | < 50%
COCCOCCOc1cccc2c1C1(COc3cc4c(cc31)OCCO4)C(=O)N2C (centres unmarked) | < 50%
O=C1N(Cc2ncccc2C(F)(F)F)c2ccccc2C12COc1cc3c(cc12)OCCC3 (centres unmarked) | < 50%
CC(C)c1nc(CN2C(=O)C3(COc4cc5c(cc43)OCO5)c3c(Cl)cccc32)no1 (centres unmarked) | > 50%
O=C(NC1CCC1)c1ccc(CN2C(=O)C3(COc4cc5c(cc43)CCO5)c3ccccc32)cc1 (centres unmarked) | > 50%

Could I get inhibition at 10 µM for every one of these entries?
1. COc1ccc2c(c1)OCC21C(=O)N(Cc2ccccn2)c2ccccc21 (centres unmarked)
2. Nc1cccc2c1C1(COc3cc4c(cc31)OCCO4)C(=O)N2Cc1ncccc1C(F)(F)F (centres unmarked)
3. O=C1N(Cc2ncccc2C(F)F)c2ccccc2[C@]12COc1cc3c(cc12)OCCO3

< 50%
< 50%
< 50%

Could I get inhibition at 10 µM for every one of these entries?
1. O=C1N(Cc2cccc[n+]2[O-])c2ccccc2C12COc1cc3c(cc12)OCCO3 (centres unmarked)
2. CC(C)CCN1C(=O)C2(COc3cc(O)c(C(=O)C(F)(F)F)cc32)c2ccccc21 (centres unmarked)
3. O=C(Nc1ccccc1)c1ccc(CN2C(=O)C3(COc4cc5c(cc43)CCO5)c3ccccc32)cc1 (centres unmarked)
4. CN1C(=O)C2(COc3cc4c(cc32)OCCO4)c2c(O)cccc21 (centres unmarked)
5. COC(=O)c1ccc(CN2C(=O)C3(COc4cc5c(cc43)CCO5)c3ccccc32)cc1 (centres unmarked)

< 50%
> 50%
< 50%
< 50%
< 50%

----------
For each record, write down the corresponding melting point.
Where a name gives a salt, the structure may show the parent alone.

Observe how each entry below is paired with its result.
compound | melting point
O=C(c1ccccc1CN1C(=O)C2(COc3cc4c(cc32)CCO4)c2ccccc21)N1CCCCC1 (centres unmarked) [Example 12.17] | 168 to 170 °C
CN(C(=O)CN1C(=O)C2(COc3cc4c(cc32)CCO4)c2ccccc21)c1ccccc1 (centres unmarked) [Example 12.52] | 234 to 238 °C
COc1ccc(-c2ccc3c(c2)C2(CO3)C(=O)N(Cc3ccc(Cl)s3)c3ccccc32)cn1 (centres unmarked) [Example 16.88] | 60 to 62 °C
Cc1nc2cc3c(cc2o1)C1(CO3)C(=O)N(C[C@H]2CCCO2)c2ccccc21 (some centres unmarked) [Example 4.58] | 188 to 190 °C
CC(C)c1cc(CN2C(=O)C3(COc4cc5c(cc43)OCO5)c3ccccc32)on1 (centres unmarked) [Example 1.6] | 132 to 136 °C

Could I get melting point for every one of these entries?
1. CC(C)c1ncc(CN2C(=O)C3(COc4cc5c(cc43)OCO5)c3ccccc32)o1 (centres unmarked) [Example 4.77]
2. COc1ccc(CN2C(=O)C3(COc4cc5c(cc43)OCCO5)c3ccccc32)cn1 (centres unmarked) [Example 5.15]
3. N#Cc1cccc(CN2C(=O)C3(COc4cc5c(cc43)OCCO5)c3ccccc32)c1 (centres unmarked) [Example 4.94]
4. O=C1N(Cc2ccccc2C(F)(F)F)c2ccccc2[C@]12COc1cc3c(cc12)OCCO3 [Example 4.116]
5. O=C1N(Cc2ccc(N[C@@H]3CCNC3)cc2)c2ccccc2C12COc1cc(F)c(F)cc12 (some centres unmarked) (as salt: hydrochloride) [Example 33.2]

75 to 77 °C
161 to 162 °C
173 to 178 °C
137 to 138 °C
153 to 162 °C

Could I get melting point for every one of these entries?
1. CN1C(=O)C2(COc3cc4c(cc32)OCCO4)c2c(Oc3ccccn3)cccc21 (centres unmarked) [Example 16.53]
2. O=C1N(Cc2ccncn2)c2ccccc2C12COc1cc3c(cc12)CCO3 (centres unmarked) [Example 9.6]
3. COCCOc1ccc2c(c1)C1(CO2)C(=O)N(Cc2ccccn2)c2ccccc21 (centres unmarked) [Example 5.35]
4. CN1C(=O)COc2cc3c(cc21)C1(CO3)C(=O)Nc2ccccc21 (centres unmarked) [Example 3.22]

1: 219 to 221 °C; 2: 158 to 160 °C; 3: 140 to 142 °C; 4: > 250 °C

Could I get melting point for every one of these entries?
1. O=C1c2ccccc2C(=O)N1CCCN1C(=O)C2(COc3cc4c(cc32)CCO4)c2ccccc21 (centres unmarked) [Example 9.66]
2. CN1CCC(CN2C(=O)C3(COc4cc(F)c(F)cc43)c3ccccc32)CC1 (centres unmarked) (as salt: hydrochloride) [Example 11.112]

1: 214 to 217 °C; 2: 162 to 164 °C

----------
For each record, write down the corresponding inhibition at 10 µM.
test_target: CYP3A4 (Homo sapiens, UniProt P08684)
Sequence (P08684 whole entry): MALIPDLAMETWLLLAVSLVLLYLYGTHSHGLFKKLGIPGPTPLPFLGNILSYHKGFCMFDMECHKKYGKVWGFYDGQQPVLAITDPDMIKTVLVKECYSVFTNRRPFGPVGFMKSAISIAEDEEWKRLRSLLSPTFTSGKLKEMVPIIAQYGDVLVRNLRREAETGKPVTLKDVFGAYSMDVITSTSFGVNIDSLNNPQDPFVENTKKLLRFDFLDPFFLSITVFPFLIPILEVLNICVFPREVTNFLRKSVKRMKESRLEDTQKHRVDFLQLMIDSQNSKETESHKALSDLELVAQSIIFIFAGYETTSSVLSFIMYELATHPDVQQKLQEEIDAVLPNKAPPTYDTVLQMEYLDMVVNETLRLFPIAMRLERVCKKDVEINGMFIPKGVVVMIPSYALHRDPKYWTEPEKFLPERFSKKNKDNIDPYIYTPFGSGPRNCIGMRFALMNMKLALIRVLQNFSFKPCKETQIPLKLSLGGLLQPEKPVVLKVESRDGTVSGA
protocol_notes: Cytochrome P450 (CYP450) Inhibition Assay, CYP3A4 (Vivid fluorescence, BOMCC substrate)
condition_details: human, P450 Baculosomes (recombinant CYP3A4), probe BOMCC (Vivid substrate)

compound | test_target | inhibition at 10 µM
O=C1N(C[C@H]2CCCO2)c2cccc(CN3CCCC3)c2C12COc1cc3c(cc12)CCO3 (stereo partly shown) | CYP3A4 (Homo sapiens, UniProt P08684) | < 50%
COc1cc2c(cc1F)C1(CO2)C(=O)N(CC2CCOCC2)c2ccccc21 (stereo not shown) | CYP3A4 (Homo sapiens, UniProt P08684) | < 50%
COc1ccccc1NC(=O)c1ccccc1CN1C(=O)C2(COc3cc4c(cc32)CCO4)c2ccccc21 (stereo not shown) | CYP3A4 (Homo sapiens, UniProt P08684) | > 50%
O=C1N(Cc2ccccn2)c2ccccc2C12COc1cc3c(cc12)S(=O)(=O)C=C3 (stereo not shown) | CYP3A4 (Homo sapiens, UniProt P08684) | < 50%
O=C1N(Cc2ccc(O)cc2)c2ccccc2C12COc1cc3c(cc12)CCO3 (stereo not shown) | CYP3A4 (Homo sapiens, UniProt P08684) | > 50%

Could I get inhibition at 10 µM for every one of these entries?
1. O=C1N(Cc2noc(C(F)(F)F)n2)c2cccc(Cl)c2C12COc1cc3c(cc12)OCO3 (stereo not shown)
2. Cc1cc2c(cc1C)C1(CO2)C(=O)N(CC2CCOCC2)c2ccccc21 (stereo not shown)

1: > 50%; 2: > 50%

----------
test_target: CYP3A4 (Homo sapiens)
protocol_notes: Cytochrome P450 (CYP450) Inhibition Assay, CYP3A4 (Vivid fluorescence, BOMCC substrate)
condition_details: human, P450 Baculosomes (recombinant CYP3A4), probe BOMCC (Vivid substrate)
result_type: inhibition at 10 µM

molecule | inhibition at 10 µM
O=C1Nc2cccc(F)c2C12COc1cc3c(cc12)OCCO3 (stereo not shown) | < 50%
CN(C)S(=O)(=O)c1cccc(CN2C(=O)C3(COc4cc5c(cc43)OCCO5)c3ccccc32)c1 (stereo not shown) | > 50%
N#Cc1cc2c(cc1F)OCC21C(=O)N(Cc2ccccn2)c2ccccc21 (stereo not shown) | > 50%

As a next step, examine the molecule that follows.
Test system CYP3A4 (Homo sapiens); read-out inhibition at 10 µM; what value for CSc1ccc(CN2C(=O)C3(COc4cc5c(cc43)OCO5)c3ccccc32)cc1 (stereo not shown) ?
> 50%
